All figures here come from ChEMBL document CHEMBL5726904.

- SYSTEM UNDER TEST: Leucine-rich repeat serine/threonine-protein kinase 2 (Homo sapiens, UniProt Q5S007, G2019S)
- Sequence (Q5S007 whole entry G2019S): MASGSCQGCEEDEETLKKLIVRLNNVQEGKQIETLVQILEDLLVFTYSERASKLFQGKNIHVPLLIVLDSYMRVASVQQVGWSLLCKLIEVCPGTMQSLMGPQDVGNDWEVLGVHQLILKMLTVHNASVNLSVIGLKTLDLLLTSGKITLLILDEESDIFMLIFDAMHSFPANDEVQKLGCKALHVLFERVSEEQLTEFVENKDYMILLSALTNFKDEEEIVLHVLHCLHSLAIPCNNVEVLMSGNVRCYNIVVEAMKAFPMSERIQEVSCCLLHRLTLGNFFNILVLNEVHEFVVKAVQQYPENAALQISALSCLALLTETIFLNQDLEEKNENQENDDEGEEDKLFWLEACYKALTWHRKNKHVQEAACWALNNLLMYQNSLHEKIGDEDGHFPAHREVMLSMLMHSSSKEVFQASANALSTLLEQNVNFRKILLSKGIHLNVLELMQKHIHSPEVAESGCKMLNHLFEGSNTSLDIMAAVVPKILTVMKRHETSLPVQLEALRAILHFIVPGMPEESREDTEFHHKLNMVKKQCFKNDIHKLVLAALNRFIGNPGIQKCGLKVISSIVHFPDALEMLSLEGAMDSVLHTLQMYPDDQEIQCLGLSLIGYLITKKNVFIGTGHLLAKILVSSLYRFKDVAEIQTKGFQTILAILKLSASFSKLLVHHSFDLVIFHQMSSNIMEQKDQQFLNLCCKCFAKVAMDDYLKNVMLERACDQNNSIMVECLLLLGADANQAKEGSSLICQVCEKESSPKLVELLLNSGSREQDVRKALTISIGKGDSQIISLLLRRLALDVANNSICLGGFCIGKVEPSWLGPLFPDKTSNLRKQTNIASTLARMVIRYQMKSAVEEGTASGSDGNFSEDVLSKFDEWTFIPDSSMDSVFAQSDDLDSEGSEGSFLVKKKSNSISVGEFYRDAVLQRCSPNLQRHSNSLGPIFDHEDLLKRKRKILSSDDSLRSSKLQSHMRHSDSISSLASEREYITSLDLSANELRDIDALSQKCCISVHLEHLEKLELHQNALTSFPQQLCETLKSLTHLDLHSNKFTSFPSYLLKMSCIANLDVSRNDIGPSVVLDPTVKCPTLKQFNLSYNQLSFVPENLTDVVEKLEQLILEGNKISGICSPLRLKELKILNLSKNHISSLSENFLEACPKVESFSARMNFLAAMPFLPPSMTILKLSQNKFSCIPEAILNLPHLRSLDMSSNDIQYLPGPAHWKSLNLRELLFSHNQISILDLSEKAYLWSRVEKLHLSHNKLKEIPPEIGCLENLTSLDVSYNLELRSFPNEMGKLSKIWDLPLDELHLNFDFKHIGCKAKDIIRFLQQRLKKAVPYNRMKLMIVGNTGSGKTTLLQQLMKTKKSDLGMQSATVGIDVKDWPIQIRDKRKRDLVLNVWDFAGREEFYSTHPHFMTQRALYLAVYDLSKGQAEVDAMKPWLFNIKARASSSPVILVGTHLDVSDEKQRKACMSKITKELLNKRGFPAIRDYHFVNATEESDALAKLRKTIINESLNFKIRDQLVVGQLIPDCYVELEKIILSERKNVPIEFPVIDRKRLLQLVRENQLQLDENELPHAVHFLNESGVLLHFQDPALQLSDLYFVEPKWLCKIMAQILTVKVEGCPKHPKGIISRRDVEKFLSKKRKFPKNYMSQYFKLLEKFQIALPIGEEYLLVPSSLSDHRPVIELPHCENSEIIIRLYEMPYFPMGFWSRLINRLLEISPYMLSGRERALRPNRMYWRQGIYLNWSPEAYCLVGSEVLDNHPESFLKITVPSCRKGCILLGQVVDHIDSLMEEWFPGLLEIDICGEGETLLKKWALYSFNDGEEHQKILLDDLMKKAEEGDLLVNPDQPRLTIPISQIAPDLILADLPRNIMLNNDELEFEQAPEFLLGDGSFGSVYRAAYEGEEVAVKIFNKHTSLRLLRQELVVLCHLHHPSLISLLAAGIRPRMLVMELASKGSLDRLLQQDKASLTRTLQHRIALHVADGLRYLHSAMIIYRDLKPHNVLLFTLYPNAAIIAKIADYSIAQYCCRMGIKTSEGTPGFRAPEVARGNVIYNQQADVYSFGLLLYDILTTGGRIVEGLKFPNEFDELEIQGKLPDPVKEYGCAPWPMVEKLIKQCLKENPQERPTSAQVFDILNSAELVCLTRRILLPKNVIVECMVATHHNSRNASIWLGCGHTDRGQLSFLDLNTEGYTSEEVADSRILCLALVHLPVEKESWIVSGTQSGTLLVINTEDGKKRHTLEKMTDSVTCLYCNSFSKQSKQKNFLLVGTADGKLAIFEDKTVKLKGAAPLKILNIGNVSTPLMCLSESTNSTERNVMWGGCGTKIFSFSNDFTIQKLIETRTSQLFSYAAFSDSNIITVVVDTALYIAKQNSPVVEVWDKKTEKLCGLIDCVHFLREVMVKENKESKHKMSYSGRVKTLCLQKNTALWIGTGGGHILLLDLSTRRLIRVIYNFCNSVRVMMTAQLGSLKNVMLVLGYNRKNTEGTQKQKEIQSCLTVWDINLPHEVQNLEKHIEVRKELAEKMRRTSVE
- RUN DESCRIPTION: Biochemical Assay: Materials: LRRK2 G2019S enzyme Substrate (LRRKtide) ATP TR-FRET dilution buffer pLRRKtide antibody 384-well assay plate DMSOEnzyme Reaction Conditions 50 mM Tris pH 7.5, 10 mM MgCl2, 1 mM EGTA, 0.01% Brij-35, 2 mM DTT 5 nM LRRK2 134 μM ATP 60 minute reaction time 23° C. reaction temperature 10 μL total reaction volumeDetection Reaction Conditions 1× TR-FRET dilution buffer 10 mM EDTA 2 nM antibody 23° C. reaction temperature 10 μL total reaction volumeCompounds were prepared by initially diluting to 1 mM with DMSO. 35 μL of reference compound solution, 35 μL of test compound solution, and 35 μL HPE were successively added to the source plate (384-well assay plate, Labcyte). The plates were centrifuged at 2500 rpm for 1 minute and sealed in foil. POD was used to perform a 3.162 fold serial dilution and 100 nL of reference compound solution, test compound solution, HPE and ZPE were transferred to assay plates. The assay plate was centrifuged at 2500 rpm for 1 minute, and sealed with foil.To perform the enzyme reaction, 5 μL of LRRKtide substrate and kinase mixture in assay buffer was added to all wells of the assay plate. The plate was centrifuged to concentrate the mixture at the bottom of the wells. The assay plate was incubated at 23° C. for 20 minutes. Following incubation, 5 μL of 2× ATP in assay buffer was added to each well, and plates were centrifuged to concentrate the mixture at the bottom of the wells. The plate was incubated at 23° C. for 60 minutes.To perform the detection of the reaction, EDTA completely mixed in TR-FRET dilution buffer was added to antibody reagent. 10 μL of detection reagent was added to all wells of each well of the assay plate and the plate was centrifuged to concentrate the mixture at the bottom of the wells. The plate was then incubated at 23° C. for 60 minutes. Plates were read on Perkin Elmer Envision 2104 instrument in TR-FRET mode using a 340 nm excitation filter, 520 nm fluorescence emission filter, and 490 or 495 nm terbium emission filter.
pIC50: −log10 of the molar value.
MEASURE: pIC50

Task: I am curious: what pIC50 value has been reported for COc1nc(Nc2cn(C3C[C@@H]3C#N)nc2C2CC2)ncc1Br (single isomer, unassigned) ?
Result: > 7.52

Task: I am curious: what pIC50 value has been reported for "COc1nc(Nc2cn(C(C)(C)C#N)nc2C)ncc1Br" ?
Result: > 7.52
